Each entry below carries its recorded EC50.
# Assay target: mouse PPARδ (Mus musculus)
# Sequence (P35396 210-438 limits assumed): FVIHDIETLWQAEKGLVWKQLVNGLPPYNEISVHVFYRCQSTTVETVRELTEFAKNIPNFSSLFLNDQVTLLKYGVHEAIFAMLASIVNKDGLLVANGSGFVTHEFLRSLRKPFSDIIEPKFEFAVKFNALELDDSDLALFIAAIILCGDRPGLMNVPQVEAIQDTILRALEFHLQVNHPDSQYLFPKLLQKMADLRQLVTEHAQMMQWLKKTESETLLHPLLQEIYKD
# Protocol description: PPAR delta transactivation (GAL4 chimeric receptor luciferase reporter) assay
# Cond: GAL4-mPPAR δ chimeric receptor, pFR-Luc reporter, HEK293T cells, 20 hours incubation; read-out: Gene Activation Assay: EC50 (<10 μM) PPAR delta
Metric name: EC50

compound="Cc1nn(-c2ccc(C(F)(F)F)cc2)nc1COc1ccc2c(CC(=O)O)coc2c1 [Compound 160]" assay_target="mouse PPARδ (Mus musculus)" measurement="< 10 µM"
compound="Cc1nn(-c2ccc(C(F)(F)F)cc2)nc1COc1ccc2ccn(CC(=O)O)c2c1 [Compound 130]" assay_target="mouse PPARδ (Mus musculus)" measurement="< 10 µM"
compound="Cc1nn(-c2ccc(C(F)(F)F)cc2)nc1COc1ccc2c(c1)OCC2CC(=O)O (stereo not shown) [Compound 700]" assay_target="mouse PPARδ (Mus musculus)" measurement="< 10 µM"
compound="Cc1nn(-c2ccc(C(F)(F)F)cc2)nc1COc1ccc2c(ccn2CC(=O)O)c1 [Compound 20]" assay_target="mouse PPARδ (Mus musculus)" measurement="< 10 µM"

###

# Assay target: UniProtKB P23204
# Sequence (P23204 239-466 limits assumed): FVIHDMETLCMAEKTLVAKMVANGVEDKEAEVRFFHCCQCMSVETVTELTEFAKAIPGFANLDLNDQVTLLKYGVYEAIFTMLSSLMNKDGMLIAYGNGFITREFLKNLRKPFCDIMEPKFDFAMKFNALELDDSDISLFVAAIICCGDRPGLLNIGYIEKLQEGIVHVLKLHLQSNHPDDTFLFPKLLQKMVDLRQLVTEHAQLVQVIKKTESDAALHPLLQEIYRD
# Protocol description: PPAR alpha transactivation (GAL4 chimeric receptor luciferase reporter) assay
# Cond: pFR-Luc reporter, HEK293T cells, 20 hours incubation, read-out: Gene Activation Assay: EC50 (<10 μM) PPAR alpha
Metric name: EC50

molecule=Cc1nn(-c2ccc(C(F)(F)F)cc2)nc1COc1ccc2c(CC(=O)O)coc2c1 measurement="> 10 µM"
molecule=Cc1nn(-c2ccc(C(F)(F)F)cc2)nc1COc1ccc2ccn(CC(=O)O)c2c1 measurement="< 10 µM"
molecule=Cc1nn(-c2ccc(C(F)(F)F)cc2)nc1COc1ccc2c(ccn2CC(=O)O)c1 measurement="> 10 µM"
molecule="Cc1nn(-c2ccc(C(F)(F)F)cc2)nc1COc1ccc2c(c1)OCC2CC(=O)O (stereo not shown)" measurement="> 10 µM"

###

# Assay target: mouse PPARγ (Mus musculus)
# Sequence (P37238 238-503 limits assumed): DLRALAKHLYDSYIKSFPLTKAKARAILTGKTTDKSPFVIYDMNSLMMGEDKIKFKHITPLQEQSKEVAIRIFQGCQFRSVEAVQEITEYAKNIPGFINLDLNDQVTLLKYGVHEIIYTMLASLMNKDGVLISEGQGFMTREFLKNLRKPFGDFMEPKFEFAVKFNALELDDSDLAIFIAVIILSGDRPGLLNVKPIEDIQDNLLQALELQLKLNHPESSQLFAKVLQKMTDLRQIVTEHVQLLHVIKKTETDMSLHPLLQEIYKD
# Protocol description: PPAR gamma transactivation (GAL4 chimeric receptor luciferase reporter) assay
# Cond: GAL4-mPPARγ chimeric receptor, pFR-Luc reporter, HEK293T cells, 20 hours incubation; read-out: Gene Activation Assay: EC50 (<10 μM) PPAR gamma
Metric name: EC50

compound="Cc1nn(-c2ccc(C(F)(F)F)cc2)nc1COc1ccc2c(c1)OCC2CC(=O)O (stereo not shown) [Compound 700]" assay_target="mouse PPARγ (Mus musculus)" measurement="> 30 µM"
compound="Cc1nn(-c2ccc(C(F)(F)F)cc2)nc1COc1ccc2ccn(CC(=O)O)c2c1 [Compound 130]" assay_target="mouse PPARγ (Mus musculus)" measurement="< 10 µM"
compound="Cc1nn(-c2ccc(C(F)(F)F)cc2)nc1COc1ccc2c(CC(=O)O)coc2c1 [Compound 160]" assay_target="mouse PPARγ (Mus musculus)" measurement="> 10 µM"
compound="Cc1nn(-c2ccc(C(F)(F)F)cc2)nc1COc1ccc2c(ccn2CC(=O)O)c1 [Compound 20]" assay_target="mouse PPARγ (Mus musculus)" measurement="> 30 µM"

The measurements presented in this section are drawn from patent US20060014785A1.
